Please go through the items and note down their inhibition at 5 µM.
Test system: microglial cell cultures treated with LPS
Experiment: TNF-α release (ELISA) in LPS-activated microglial cell cultures
Assay type: cell-based
Details: LPS 0.01 μg/ml, 24 hours of activation; compound at 5×10^-6 M; read-out: decrease in TNF-α production compared to control values
Answers are plain numbers, in %.

Smiles Entry	inhibition at 5 µM / %
COc1ccc(/C=C/c2cc(OC)c(CCCCCCCCCCO)c(OC)c2)cc1OC	40

State recorded inhibition at 5 µM for all listed compounds.
1. Oc1ccc(/C=C/c2cc(O)cc(O)c2)cc1
2. COc1ccc(/C=C/c2cc(OC)c(CCCCCCCCCCCCO)c(OC)c2)cc1OC
3. OCCCCCCCCCCCCc1c(O)cc(/C=C/c2ccc(O)cc2)cc1O

Given back:
30
40
40
